Assay: Dog plasma PK, IV and oral
Format: in vivo
Details: male, Beagle, dog, plasma, iv, 2.1 mg/kg, IV 2.1 mg kg-1, Dog 2
METRIC_NAME: MRT (h)
Numeric only. Scale: h

Using known records, supply MRT for Cc1nc(Nc2ncc(N3CCN(C)[C@H](C)C3)c(Nc3cc(C)n(C)n3)n2)cc(C2CC2)c1F [compound 12]
15.9

====

Test: Rat blood PK, IV and oral
Format: in vivo
Settings: Wistar, rat, whole blood, iv, 2 mg/kg, IV 2 mg kg-1, Rat 2; read-out: t½ (converted)
METRIC_NAME: half-life (h)
Numeric only. Scale: h

Using known records, supply half-life for `Cc1nc(Nc2ncc(N3CCN(C)[C@H](C)C3)c(Nc3cc(C)n(C)n3)n2)cc(C2CC2)c1F`
19.2

Values from paper PMC4389225
